Recorded pKd by entry
System: Fab clone 12 (synthetic), PDB:6B14_1+PDB:6B3K_2
test-name: filter binding
pKd (log units): -log10 of the concentration in mol/L.

UGCGACCAUGGUGAGACCCGCCAUGGUCGC [N9RNA1 HP (AM HP)] : 8.15

Asked: Quick one: give measured pKd for GGCGACCAUGGAAACACCAUGGUCGC [WT-RNA HP (WT BL3-6 HP)]
Given back: 7.77

Asked: Using known records, supply pKd for GUCCAGUAGGAACACUAUACUACUGGAUAAUCAAAGACAAAUCUGCCCGAAGGGCUUGAGAACAUCGAAACACGAUGCAGAGGUGGCAGCCUCCGGUGGGUUAAAACCCAACGUUCUCAACAAUAGUGA [WT-BLP]
Given back: 7.43

* * *

Tested on: Fab clone 1 (synthetic), PDB:6B14_1+PDB:6B3K_2
test-name: filter binding
pKd values, listed per item
Hey, just a heads up that pKd is the negative log base 10 of the concentration in molar.

Illustrative cases are given below, each with its answer.
GUCCAGUAGGAACACUAUACUACUGGAUAAUCAAAGACAAAUCUGCCCGAAGGGCUUGAGAACAUCGAAACACGAUGCAGAGGUGGCAGCCUCCGGUGGGUUAAAACCCAACGUUCUCAACAAUAGUGA [WT-BLP] : 7.59
UGCGACCAUGGUGAGACCCGCCAUGGUCGC [N9RNA1 HP (AM HP)] : 7.96

Okay, now this sequence:
Asked: Annotate the sequence GGCGACCAUGGAAACACCAUGGUCGC [WT-RNA HP (WT BL3-6 HP)] with its measured pKd.
Given back: 7.54
